Experiment: chemical genetic growth profiling, strain panel (AID 1159580);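 note: tested at 20 µM; growth read once vehicle control cultures reached saturation at 30 °C; 1 = growth at the plate median or of vehicle wells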
Conditions: S. cerevisiae deletion strains, growth OD, locus YEL061C, strain CIN8, hits give low values
About 2,000 (36%) of roughly 5,500 compounds were called active. About 18% were inconclusive and are not listed. Some of the results follow.
Please go through the items and note down their normalized growth.
Number, no unit, nothing else.

Look up normalized growth for this compound: Cc1ccc(O)cc1
1.02

Reported normalized growth for O=C(O)c1cc(=O)c2cc(Cl)ccc2[nH]1 : what is it?
1

GET /values?readout=normalized growth&item= CC1(C)S[C@@H]2[C@H](NC(=O)[C@H](NC(=O)N3CCNC3=O)c3ccccc3)C(=O)N2C1C(=O)O (stereo partly drawn)
0.996

Query: normalized growth; subject: CCOC(=O)COc1ccc2c(c1)OC(C)(C)CC2=O
1.01

Fill in: normalized growth of CCCCCCCc1c(O)c2ccccc2[nH]c1=O is ___
1.01

Find the recorded normalized growth belonging to COc1ccccc1CC(=O)NC1CCN(Cc2ccccc2)CC1 and report it.
1.02

Fill in: normalized growth of CN=C(NC#N)NCCSCc1nc[nH]c1C is ___
0.998

Request the reported normalized growth associated with N#Cc1c(Cl)c(Cl)c(Cl)c(C#N)c1Cl
1

Quick check: normalized growth of O=c1[nH]c2cccnc2[nH]c1=O ?
1

Give its normalized growth value. Item: Cc1c(N(C)C)c(=O)n(-c2ccccc2)n1C
0.996

Data request, read-out normalized growth, for Cc1c(O)cc(O)c2c(=O)c(-c3ccc(O)cc3)coc12
0.993

Reported normalized growth, compound COc1ccc2cc1Oc1ccc(cc1)C[C@H]1c3cc(c(OC)cc3CCN1C)Oc1c(OC)c(OC)cc3c1[C@H](C2)N(C)CC3 : ____
1.01

Quick one: normalized growth of COc1cccc2c1CCC1CC(=O)CCC21C (stereo not drawn) ?
0.987

Which value of normalized growth has been reported for O=C(O)c1cc(=O)c2ccc(Cl)cc2[nH]1 in the records?
1.01

Name the reported normalized growth value associated with the compound Nc1nc2[nH]c(=O)c(=O)[nH]c2c(=O)[nH]1
1.01

Give its normalized growth value. Item: CC(=O)Nc1cccc(-n2nnc(SCc3ccccc3)n2)c1
1

Reported normalized growth, compound NC/C=C/C(=O)O : ____
1.01

Could you tell me which normalized growth is on file for CCC1(c2ccc(N)cc2)CCC(=O)NC1=O (stereo not drawn) ?
1.01

For the compound N=c1nc(N2CCCCC2)cc(N)n1O , what normalized growth is on record?
0.982

Reported normalized growth for OCCN(CCO)c1nc(N2CCCCC2)c2nc(N(CCO)CCO)nc(N3CCCCC3)c2n1 : what is it?
1.01

Look up normalized growth: Cc1cc(=O)c2c(O)c(C)c(O)cc2o1
1

Which normalized growth value is on record for CC1(C)C2CC[C@]3(C)C(C(=O)C=C4[C@@H]5C[C@@](C)(C(=O)O)CC[C@]5(C)CC[C@]43C)[C@@]2(C)CC[C@@H]1OC(=O)CCC(=O)O (stereo partly drawn) ?
0.999

Name the recorded normalized growth for CCC1(c2ccccc2)C(=O)NCNC1=O .
1

Name the reported normalized growth value associated with the compound Cc1cc(=O)c2c(O)cc(O)c(C)c2o1
0.993

Item NC[C@@H]1O[C@H](O[C@@H]2[C@@H](CO)OC(O[C@@H]3[C@@H](O)[C@H](N)C[C@H](N)[C@H]3OC3O[C@H](CN)[C@@H](O)[C@H](O)[C@H]3N)[C@@H]2O)[C@H](N)[C@@H](O)[C@@H]1O (stereo partly drawn) has what recorded normalized growth?
1.01

normalized growth for Oc1ccc(O)cc1 ?
1.02

Need normalized growth of Cc1cc(NC(=O)C(Cl)(Cl)Cl)n(-c2ccccc2)n1 , thanks.
0.994

Item under review: O=C1CC(c2ccccc2)Oc2ccccc21 (stereo not drawn) . Reported normalized growth?
0.976

// normalized growth lookup, key: Cc1ccc(Oc2ccc(C)cc2)cc1
0.976

Item Cc1nn(-c2ccccc2)nc1C(=O)NC(=O)N1CCCC1 has what recorded normalized growth?
1.02

# query: normalized growth of entry Cc1ccc2c(c1)CC[C@H]1CC(=O)CC[C@]21C
1

# query: normalized growth of entry CCC1(C)CC(=O)NC1=O (stereo not drawn)
1.01

What value of normalized growth has been reported for the following compound? OCC(O)Cc1ccc2c(c1)OCO2 (stereo not drawn)
1.01

###

Test: chemical genetic growth profiling, strain panel (AID 1159580)
Settings: S. cerevisiae deletion strains, growth OD, locus YLR113W, strain HOG1, hits give low values
The whole screen tested about 5,500 compounds, of which about 2,000 (36%) were called active. Roughly 18% stayed inconclusive and do not appear here. This is one part of the list.
Condition met if normalized growth is below 1. Condition not met if not; exact matches included in Condition not met.

Check if normalized growth falls below 1 for CC(C)(C)C1=NN(c2nc3ccc(Cl)cc3s2)C(=O)C1 .
Condition met

In plain terms, does COc1ccc2cc1Oc1ccc(cc1)C[C@H]1c3cc(c(OC)cc3CCN1C)Oc1c(OC)c(OC)cc3c1[C@H](C2)N(C)CC3 come in under 1 for normalized growth?
Condition not met

Check if normalized growth falls below 1 for CCCCOc1ccc(OCCCN2CCOCC2)cc1 .
Condition not met

Input S=C=NCc1ccccc1 ; condition: normalized growth strictly below 1. Does it hold?
Condition met

Just wondering, is normalized growth of CC1(C)S[C@@H]2[C@H](NC(=O)[C@H](NC(=O)N3CCNC3=O)c3ccccc3)C(=O)N2C1C(=O)O (some centres undefined) below 1?
Condition met

###

Experiment: chemical genetic growth profiling, strain panel (AID 1159580);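 note: tested at 20 µM; growth read once vehicle control cultures reached saturation at 30 °C; 1 = growth at the plate median or of vehicle wells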
Settings: S. cerevisiae deletion strains, growth OD, locus YOR316C, strain cot1, hits give low values
About 2,000 (36%) of roughly 5,500 compounds were called active. Another 18% or so got no clear call; they are omitted. Some of the results follow.
quantity: normalized growth
# answer = number (no unit)

# normalized growth lookup, item CC1(C)S[C@@H]2[C@H](NC(=O)[C@H](NC(=O)N3CCNC3=O)c3ccccc3)C(=O)N2C1C(=O)O (some centres not stated)
0.99

Reported normalized growth, molecule CCOC(=O)/C=C(\C)OP(=O)(OC)OC : ____
0.981

GET /values?readout=normalized growth&item= C[C@@H]1O[C@@H](O[C@H]2[C@@H](Oc3cc(O)c4c(c3)O[C@H](c3ccc(O)cc3)CC4=O)O[C@H](CO)[C@@H](O)[C@@H]2O)[C@H](O)[C@H](O)[C@H]1O
0.992

Returns the measured normalized growth for the input molecule. Input: C[N+](C)(C)CC(=O)[O-]
0.972

Which normalized growth is reported for this molecule? Cc1ccc(C(=O)C(C)CN2CCCCC2)cc1 (configuration not stated)
1.02

Query: normalized growth; subject: NC(N)=NOCC[C@H](N)C(=O)O
0.992

Which value of normalized growth has been reported for CC(C)(C)CC(C)(C)c1ccc(OCCOCC[N+](C)(C)Cc2ccccc2)cc1 in the records?
0.992

###

Experiment: chemical genetic growth profiling, strain panel (AID 1159580);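 note: tested at 20 µM; growth read once vehicle control cultures reached saturation at 30 °C; 1 = growth at the plate median or of vehicle wells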
Conditions: S. cerevisiae deletion strains, growth OD, locus YJL134W, strain LCB3, hits give low values
Screen size: about 5,500 compounds; about 2,000 (36%) were called active. Inconclusive results (about 18%) are left out. This is one part of the list.
The label is met for normalized growth below 1 and not met for normalized growth equal to or exceeding 1.

Could you please tell me whether normalized growth recorded for COc1ccc(-c2coc3c(OC)c(O)ccc3c2=O)cc1 is less than 1?
met

Given S=C=NCc1ccccc1 , is recorded normalized growth strictly lower than 1?
met

Could you please tell me whether normalized growth recorded for CC1(C)C2CC[C@]3(C)C(C(=O)C=C4[C@H]5C[C@@](C)(C(=O)O)CC[C@]5(C)CC[C@]43C)[C@@]2(C)CC[C@@H]1O (some centres undefined) is less than 1?
not met

###

Experiment: chemical genetic growth profiling, strain panel (AID 1159580);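 note: tested at 20 µM; growth read once vehicle control cultures reached saturation at 30 °C; 1 = growth at the plate median or of vehicle wells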
Conditions: S. cerevisiae deletion strains, growth OD, locus YLR258W, strain gsy2, hits give low values
Hit rate of the full screen: of about 5,500 compounds, about 2,000 (36%) were called active. Another 18% or so got no clear call; they are omitted. Some of the results follow.
Field: normalized growth. Provide a value for each of the compounds that follow.

normalized growth for CNC1(C)C2CCC(C2)C1(C)C (centres undefined) ?
1.02 (inactive)

Fill in the blank: the reported normalized growth of COC1C(O)C(O)C(O)[C@@H](O)C1O (some centres undefined) is ____.
0.979 (inactive)

Consider the compound shown here: CCN(CC)C(=S)SSC(=S)N(CC)CC What is its recorded normalized growth?
0.0609 (active)

Which normalized growth value belongs to CCC1(c2ccccc2)C(=O)NCNC1=O ?
1.01 (inactive)

// returns reported normalized growth for input CC(=O)O[C@H]1C(=O)[C@@]2(C)C([C@H](OC(=O)c3ccccc3)[C@]3(O)C[C@H](OC(=O)[C@H](O)[C@@H](NC(=O)c4ccccc4)c4ccccc4)C(C)=C1C3(C)C)[C@]1(OC(C)=O)CO[C@@H]1C[C@@H]2O (some centres undefined)
0.997 (inactive)

What value of normalized growth has been recorded for this entry: CCC(C(=O)O)c1ccccc1 (centres undefined)
1 (inactive)

Data request, read-out normalized growth, for COC(=O)C1=COC(OC2OC(CO)C(O)C(O)C2O)C2C(C)CC(=O)C12O (centres undefined)
0.993 (inactive)

Endpoint output: normalized growth of COc1c2c(c(CC=C(C)C)c3oc(=O)c(-c4ccc(O)cc4)c(O)c13)OC(C)(C)C=C2 . Value?
0.824 (active)

For CCCCCC(C)N (centres undefined) , what is its reported normalized growth?
1.02 (inactive)

// data source = PubChem BioAssay AID1159580
